target: SARS-CoV-2 S1 domain (SARS-CoV-2, UniProt P0DTC2 14-685); experiment: ELISA: IgG titrated on plate-bound S1, absorbance at 450 nm
pKd: −log10 of the molar value.

[
  {
    "binder": "RB4 (antibody, V domains shown) VH: EVQLLESGGGLVQPGGSLRLSCAASGFTFSDYSMSWVRQAPGKGLEWVSGIYHSDGSKYYADSVKGRFTISRDNSKNTLYLQMNSLRAEDTAVYYCARFDPVFDYWGQGTLVTVSS VL: QSVLTQPPSASGTPGQRVTISCSGSSSNIGSNAVSWYQQLPGTAPKLLIYDNNHRPSGVPDRFSGSKSGTSASLAISGLRSEDEADYYCGSWDDSLNAYVFGGGTKLTVL",
    "pKd": 9.77
  }
]
